Reported self-cleavage values for a set of variants
B1: HDV Ribozyme (parent)
chain: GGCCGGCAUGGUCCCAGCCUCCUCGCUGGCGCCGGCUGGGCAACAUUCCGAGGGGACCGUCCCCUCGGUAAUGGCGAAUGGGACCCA

- Variants of: B1
- assay overview: self-cleavage, relative activity (ratio to wild type); higher = more cleavage; co-transcriptional
Kindly provide the number alone.

Reference set, count: 5
C4A C84A : 0.192
C41G C61G : 0.875
G5A G68U : 0.146
C61G C62G : 1.05
C32U C64U : 0.831

Moving on to the next variant.
# get_value(readout='self-cleavage', item= C48U A87C ) 0.989
